The measurements presented in this section are drawn from patent US10508120B2.

Overview of reported pIC50 across a group of compounds:
target.or.test.system: JAK2/JAK2 homdimeric complex (Homo sapiens (Human), UniProt O60674)
Sequence (O60674 whole entry): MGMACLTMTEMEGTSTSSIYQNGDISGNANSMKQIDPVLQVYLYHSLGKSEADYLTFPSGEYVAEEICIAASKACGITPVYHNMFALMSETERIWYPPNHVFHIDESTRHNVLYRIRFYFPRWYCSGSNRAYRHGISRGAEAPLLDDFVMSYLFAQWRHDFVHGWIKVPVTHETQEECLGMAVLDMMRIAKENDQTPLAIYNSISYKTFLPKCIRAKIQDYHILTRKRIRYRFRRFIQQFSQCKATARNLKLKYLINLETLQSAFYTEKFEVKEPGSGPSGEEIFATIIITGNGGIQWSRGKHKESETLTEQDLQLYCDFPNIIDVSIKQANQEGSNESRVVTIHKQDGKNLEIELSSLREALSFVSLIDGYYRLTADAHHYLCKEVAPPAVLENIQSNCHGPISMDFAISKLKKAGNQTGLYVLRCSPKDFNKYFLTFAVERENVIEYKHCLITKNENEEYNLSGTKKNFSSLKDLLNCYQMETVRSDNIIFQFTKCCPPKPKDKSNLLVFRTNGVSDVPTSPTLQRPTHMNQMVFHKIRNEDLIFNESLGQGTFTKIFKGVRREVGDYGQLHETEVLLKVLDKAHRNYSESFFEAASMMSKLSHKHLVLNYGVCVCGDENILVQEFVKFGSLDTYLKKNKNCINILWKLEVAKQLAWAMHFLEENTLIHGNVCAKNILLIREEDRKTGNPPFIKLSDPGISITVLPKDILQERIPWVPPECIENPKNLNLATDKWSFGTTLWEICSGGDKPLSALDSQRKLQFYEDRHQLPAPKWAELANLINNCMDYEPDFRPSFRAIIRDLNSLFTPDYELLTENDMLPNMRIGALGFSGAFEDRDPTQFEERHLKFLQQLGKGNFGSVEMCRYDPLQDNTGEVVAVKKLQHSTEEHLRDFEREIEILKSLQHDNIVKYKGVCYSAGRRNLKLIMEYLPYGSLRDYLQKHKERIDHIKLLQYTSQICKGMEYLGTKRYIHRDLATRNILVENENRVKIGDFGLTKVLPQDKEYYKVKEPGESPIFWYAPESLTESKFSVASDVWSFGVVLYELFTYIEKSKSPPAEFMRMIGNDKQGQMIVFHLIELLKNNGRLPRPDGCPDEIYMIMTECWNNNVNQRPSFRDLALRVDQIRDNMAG
Sequence (P32927 17-897 partner): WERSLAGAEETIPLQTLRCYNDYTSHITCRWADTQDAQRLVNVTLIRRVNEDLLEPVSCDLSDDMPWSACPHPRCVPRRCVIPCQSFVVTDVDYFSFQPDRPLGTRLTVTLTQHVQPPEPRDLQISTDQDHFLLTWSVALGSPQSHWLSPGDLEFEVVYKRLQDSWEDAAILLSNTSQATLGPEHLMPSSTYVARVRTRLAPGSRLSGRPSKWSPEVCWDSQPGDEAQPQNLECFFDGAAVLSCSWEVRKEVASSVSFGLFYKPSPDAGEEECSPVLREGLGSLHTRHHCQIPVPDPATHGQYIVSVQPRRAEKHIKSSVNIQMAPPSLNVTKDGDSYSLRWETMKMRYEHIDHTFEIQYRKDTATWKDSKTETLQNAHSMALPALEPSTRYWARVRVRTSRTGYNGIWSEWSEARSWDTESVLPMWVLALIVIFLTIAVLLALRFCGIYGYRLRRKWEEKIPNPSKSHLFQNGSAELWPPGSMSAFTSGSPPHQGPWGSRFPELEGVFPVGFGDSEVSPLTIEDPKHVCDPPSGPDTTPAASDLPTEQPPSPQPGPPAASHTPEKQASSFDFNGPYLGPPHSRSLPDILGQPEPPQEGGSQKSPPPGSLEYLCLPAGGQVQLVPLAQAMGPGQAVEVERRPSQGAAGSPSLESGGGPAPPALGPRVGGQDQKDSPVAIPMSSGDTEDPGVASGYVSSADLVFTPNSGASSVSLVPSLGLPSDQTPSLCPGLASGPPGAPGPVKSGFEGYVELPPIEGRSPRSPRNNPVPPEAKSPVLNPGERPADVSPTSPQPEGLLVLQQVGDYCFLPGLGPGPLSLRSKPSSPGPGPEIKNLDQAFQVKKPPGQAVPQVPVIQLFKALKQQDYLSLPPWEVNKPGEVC
procedure.details: GM-CSF Induced pSTAT5 in Human PBMC
study.conditions: GM-CSF 5 ng/mL for 20 minutes, pSTAT5 by MSD, read-out: PBMC_GMCSF_pSTAT5 IC50
pIC50: −log10 of the molar value.

- compound: "CNc1cc(Nc2cccn(-c3cccc(C(C)(C)O)n3)c2=O)nc2c(C(=O)N[C@H]3C[C@H]3F)cnn12"
  target.or.test.system: "JAK2/JAK2 homdimeric complex (Homo sapiens (Human), UniProt O60674)"
  pIC50: "< 4.30"

### Prompt Recorded pIC50 for `CNc1cc(Nc2cccn([C@H]3CCCOC3)c2=O)nc2c(C(=O)NC3CC3)cnn12` , please?
### Response < 4.30

### Prompt Moving on to the next compound: `CNc1cc(Nc2cccc([C@@H]3CCCOC3)n2)nc2c(C(=O)N[C@H]3C[C@H]3F)cnn12`
### Response < 4.30

### Prompt Moving on to the next compound: `CNc1cc(Nc2cccn(-c3ncccc3F)c2=O)nc2c(C(=O)NCC(C)(C)CO)cnn12`
### Response < 4.30

### Prompt Moving on to the next compound: `CNc1cc(Nc2cc(F)cn(-c3cc(C)n(C)n3)c2=O)nc2c(C(=O)N[C@H]3C[C@H]3F)cnn12`
### Response < 5.60

### Prompt Moving on to the next compound: `CNc1cc(Nc2cccn(-c3ccc(C4CC4)nn3)c2=O)nc2c(C(=O)N[C@H]3C[C@H]3F)cnn12`
### Response < 5.60

### Prompt Moving on to the next compound: `CNc1cc(-c2c[nH]c3c(C4CCOCC4)cc(Cl)cc23)nc2c(C(N)=O)cnn12`
### Response < 4.90

### Prompt Moving on to the next compound: CNc1cc(Nc2cccn([C@@H]3CCCOC3)c2=O)nc2c(C(=O)NC3CCC3OC)cnn12 (mixture of isomers)
### Response < 4.30

### Prompt Moving on to the next compound: `CNc1cc(Nc2cccnc2OC)nc2c(C(=O)NC3CCC3)cnn12`
### Response < 4.90

### Prompt Moving on to the next compound: `CNc1cc(Nc2cccn(-c3ccccn3)c2=O)nc2c(C(=O)NC3CC3)cnn12`
### Response < 4.90

### Prompt Moving on to the next compound: CNc1cc(Nc2cccn([C@H]3CC[C@](C)(OC)CC3)c2=O)nc2c(C(=O)N[C@@H]3CC[C@@H]3O)cnn12 [I-670]
### Response < 4.30

### Prompt Moving on to the next compound: CNc1cc(Nc2cccn(C3CCCN(CCF)C3)c2=O)nc2c(C(=O)N[C@@H]3C[C@@H]3F)cnn12 (stereo partly shown)
### Response < 4.30

### Prompt Moving on to the next compound: `CNc1cc(Nc2cccn(-c3cc(C)n(C)n3)c2=O)nc2c(C(=O)N[C@H]3C[C@H]3F)cnn12`
### Response < 4.30
